target: FKBP12 (protein used for ITC) (human, UniProt P62942 1-108)
Sequence (P62942 whole entry): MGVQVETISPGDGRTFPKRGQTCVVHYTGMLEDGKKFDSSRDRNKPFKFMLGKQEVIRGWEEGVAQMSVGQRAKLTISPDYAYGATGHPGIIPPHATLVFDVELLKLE
method.summary: ITC
property: Kd (nM)
Answer in nM, number only, no unit symbol.

Return Kd (reported value) for this binder: MDM2 (425-491) RING domain (protein used for ITC) (domain or fragment, human, UniProt Q00987 425-491, looked up) SVESSLPLNAIEPCVICQGRPKNGCIVHGKTGHLMACFTCAKKLKKRNKPCPVCRQPIQMIVLTYFP
1940

These measurements were taken from paper PMC5378873.
